- Test system: C2C12 WNT3A-conditioned, nuclear beta-catenin
- MEASUREMENT_PROTOCOL: activation of intranuclear CTNNB1 in the C2C12 line, dose-response, cell-based, Wnt-3a conditioned medium, half-maximal inhibitory concentration (AID 1117325)
Calls of active or inactive are those of the source. No rule for the calls is given here.
Pick from 1 (yes) = active, 0 (no) = inactive when you respond.

[
  {
    "COMPOUND": "Cc1ccc2nc(N)[nH]c(=O)c2c1Sc1ccncc1",
    "CATEGORY": "1 (yes)"
  },
  {
    "COMPOUND": "COC(=O)[C@H]1[C@H]2C[C@@H]3c4[nH]c5cc(OC)ccc5c4CCN3C[C@H]2C[C@@H](OC(=O)/C=C/c2ccc(O)c(OC)c2)[C@@H]1OC",
    "CATEGORY": "0 (no)"
  },
  {
    "COMPOUND": "Oc1c(I)cc(Cl)c2cccnc12",
    "CATEGORY": "0 (no)"
  },
  {
    "COMPOUND": "CC[C@@]1(O)C(=O)OCc2c1cc1n(c2=O)Cc2cc3c(CN(C)C)c(O)ccc3nc2-1",
    "CATEGORY": "1 (yes)"
  }
]

Ask: Call for entry `O=[N+]([O-])C(Br)(CO)CO` :
Reply: 0 (no)

Ask: Call for entry `CC[C@@]1(O)C(=O)OCc2c1cc1n(c2=O)Cc2c-1nc1ccccc1c2/C=N/OC(C)(C)C` :
Reply: 1 (yes)

The reported numbers originate from PubChem BioAssay AID1117325.
